# assay_system: CYP2C8 (Homo sapiens, UniProt P10632)
# Construct: The substrate method was used to determine the activity of human liver microsomal CYP450 enzyme; from tissue; host or cells: human liver microsomes
# Sequence (P10632 whole entry): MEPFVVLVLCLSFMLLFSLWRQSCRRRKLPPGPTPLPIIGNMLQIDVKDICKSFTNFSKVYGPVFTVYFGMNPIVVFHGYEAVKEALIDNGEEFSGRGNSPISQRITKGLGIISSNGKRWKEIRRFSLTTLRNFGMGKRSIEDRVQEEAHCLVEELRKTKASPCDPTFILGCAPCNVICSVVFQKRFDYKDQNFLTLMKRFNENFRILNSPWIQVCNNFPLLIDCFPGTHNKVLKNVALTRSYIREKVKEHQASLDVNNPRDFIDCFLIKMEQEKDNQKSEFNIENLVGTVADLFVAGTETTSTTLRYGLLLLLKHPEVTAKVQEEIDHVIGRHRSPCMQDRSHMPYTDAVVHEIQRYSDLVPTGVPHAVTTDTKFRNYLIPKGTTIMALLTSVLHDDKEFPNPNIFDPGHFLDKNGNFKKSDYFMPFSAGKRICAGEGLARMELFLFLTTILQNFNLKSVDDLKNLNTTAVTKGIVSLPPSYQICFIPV
# test_protocol: CYP450 inhibition in human liver microsomes (substrate method, LC-MS/MS)
# Format: in vitro ADME
# condition_set: read-out: CYP inhibition IC50 [μM], 2C8
outcome_measure: IC50

{"molecule": "CCOc1ccc(-c2c(F)cc(NC(=O)N3CCC(C(C)(C)C)CC3)cc2-c2nn[nH]n2)cn1 [Compound 8]", "assay_system": "CYP2C8 (Homo sapiens, UniProt P10632)", "readout_value": "50 µM"}
